Parameter TGI: see the listing below.
tested on: KM12 colon; assay: NCI tumour cell line growth inhibition, 48 h
Give just the number in µM; leave the unit off.

COc1cc(/C=C/C(=O)c2cc(OC)c(OC)c(OC)c2)cc(OC)c1OC :: 4.84

Short answer please: TGI, KM12 colon, entry CC(=O)OC1C(O)C(C)OC(OC(=O)C2CCC3C(C2)OC2(CC(OC(=O)/C=C/c4ccccc4)C(C)CO2)C32CO2)C1OC1OC(C)C(O)C(O)C1O (stereo not given)
0.144

---

test system: LXFL 529 NSCLC; assay: NCI tumour cell line growth inhibition, 48 h
Outcome measure: TGI

COC(=O)c1ccccc1N=Cc1ccc(N(CCC#N)S(=O)(=O)c2ccccc2)cc1 :: > 100 µM
N#Cc1nc(Nc2ccc([N+](=O)[O-])cc2)sc1N :: > 100 µM
Oc1ccccc1C=Nc1ccccc1N=Cc1ccccc1O :: > 100 µM
Cc1nn(C)c(=O)c2nn(-c3ccccc3)c(C)c12 :: > 100 µM
CCCN(CCC)c1c([N+](=O)[O-])cc(C(=O)N(C)C)cc1[N+](=O)[O-] :: > 100 µM
COC1(OC)c2ccccc2C2(O)c3ccccc3C(=O)C12 (stereo unspecified) :: > 100 µM
CCCCCCCCCC(=O)N[C@H]1CCc2cc(OC)c(OC)c(OC)c2-c2ccc(SC)c(=O)cc21 :: 96.7 µM
Cn1cnc([N+](=O)[O-])c1Sc1nnc(C(F)(F)F)n1C :: 27.8 µM

Short answer please: TGI, LXFL 529 NSCLC, entry NC(CNc1ccc(O)cc1)C(=O)O (stereo unspecified)
> 100 µM

Short answer please: TGI, LXFL 529 NSCLC, entry O=C1c2ccccc2C2(O)Oc3cccc(O)c3C12O (stereo unspecified)
> 100 µM

Short answer please: TGI, LXFL 529 NSCLC, entry `O=C(O/N=C1/CCCC/C1=C\c1ccccc1)c1ccc(Cl)cc1`
> 100 µM

Short answer please: TGI, LXFL 529 NSCLC, entry `CC1=N/C(=C\c2cccc3ccccc23)C(=O)O1`
> 100 µM

Short answer please: TGI, LXFL 529 NSCLC, entry CC1(CO)C(=O)OC12CCCCC2 (stereo unspecified)
> 100 µM

Short answer please: TGI, LXFL 529 NSCLC, entry NC(=S)N/N=C(\C(=O)Nc1ccc(Cl)c(Cl)c1)C1=NN(c2ccccc2)C(c2cccc([N+](=O)[O-])c2)CC1=O (stereo unspecified)
48.1 µM

Short answer please: TGI, LXFL 529 NSCLC, entry `COc1ccc(S(=O)(=O)N/N=C(\C)CN2C(=O)c3ccccc3C2=O)cc1`
> 100 µM

Short answer please: TGI, LXFL 529 NSCLC, entry `Cc1nc2ccc(NCCN(C)C)c3c(=O)c4cc(O)ccc4n1c23`
11.1 µM

---

tested on: SK-MEL-28 melanoma; assay: NCI tumour cell line growth inhibition, 48 h
Note to self: values exactly at 10 µM are Criterion met. So TGI at or above 10 µM is Criterion met, below is Criterion not met.

C=C1C(=O)O[C@H]2[C@H]1CC/C(COC(=O)C(=O)c1cn(C)c3ccc(OC)cc13)=C\CC[C@@]1(C)O[C@@H]21 :: Criterion not met
O=C1CC(Cl)c2c(Cl)sc(Cl)c21 (stereo not given) :: Criterion not met

Is TGI for `CC(C)C[C@H](NC(=O)[C@H](CCc1ccccc1)NC(=O)c1ccc2ccccc2n1)B(O)O` at or above 10 µM?
Criterion not met

Is TGI for `OCCNc1nc2c(N3CCCC3)nc(N3CCNCC3)nc2nc1NCc1ccccc1` at or above 10 µM?
Criterion met

Is TGI for `O=C(Nc1ccccc1F)c1ccc(NC2=C(Cl)C(=O)N(Cc3ccccc3)C2=O)cc1` at or above 10 µM?
Criterion met

---

system: T-47D breast; experiment: NCI tumour cell line growth inhibition, 48 h; in the data active = GI50 below about 0.43 µM; inactive = the rest
Can you answer with just one of these options? True for active, False for inactive

Clc1ccc(Nc2nc3ccccc3c3occc23)cc1 :: False

What did this assay record as the result for `CN1CCN(c2cc(Nc3cc(C4CC4)[nH]n3)nc(Nc3ccc(CC(=O)NCc4cccc(F)c4)cc3)n2)CC1` ?
False

What did this assay record as the result for COc1cccc(C2C(C#N)=C(N)Oc3cc(OC)ccc32)c1 (stereo unspecified) ?
True

What did this assay record as the result for COC1CCC(n2c([C@@H]3CCCC(=O)N3c3ccc(F)c(F)c3)nc3cc(-c4c(C)noc4C)ccc32)CC1 (stereo partly specified) ?
False

What did this assay record as the result for `Clc1ccc(-c2cn(-c3ccccc3)c(-c3ccccc3)n2)c(Cl)c1` ?
False

---

Parameter TGI: see the listing below.
test system: HT29 colon; experiment: NCI tumour cell line growth inhibition, 48 h
Peptide text beside a SMILES is read from it. * marks the point of attachment. OSu = O=C1CCC(=O)N1O*; OBn = c1ccc(CO*)cc1; Bn = c1ccc(C*)cc1

Recorded TGI, per entry:
CC(C)=CCC/C(C)=C/CC/C(C)=C/CSc1ccc(Cl)cc1C(=O)O :: 37.4 µM
c1ccc2c(c1)ccc1c3ccccc3ccc21 :: > 50 µM
COc1ccc(CCC2NCCc3cc(OC)c(OC)cc32)cc1 (configuration not stated) :: > 100 µM
CCCCc1nc2cc(/C=C/C(=O)NO)ccc2n1CCN(CC)CC :: 0.762 µM

What does the record list as TGI for `Cc1ccc(C2(c3ccc(C)c(O)c3C)CCN(C)CC2)c(C)c1O` ?
> 100 µM

What does the record list as TGI for COC1=CCC2=C(CCN(C(=O)C3CCC3)C2Cc2ccc(OC)c(O)c2)C1 (configuration not stated) ?
43.8 µM

What does the record list as TGI for O=C(NC(CO)CO)c1ccc2cc(C(=O)N3CC(CCl)c4ccc([N+](=O)[O-])cc43)[nH]c2c1 (configuration not stated) ?
> 100 µM

What does the record list as TGI for `Cc1[nH]nc(C(=O)Nc2n[nH]c3ccccc23)c1[N+](=O)[O-]` ?
> 100 µM

What does the record list as TGI for c1ccc2nn(C3CCCCO3)nc2c1 (configuration not stated) ?
> 100 µM

What does the record list as TGI for `O=C(O/N=C1/CCCC/C1=C\c1ccccc1)c1ccc(Cl)cc1` ?
> 100 µM

What does the record list as TGI for `COc1ccc2c(c1)C(=O)c1c-2n(CCCCl)c(=O)c2cc(N(C)C)ccc12` ?
> 100 µM

What does the record list as TGI for CC(C)CC(=O)CC(O)C(Cl)(Cl)Cl (configuration not stated) ?
> 100 µM

What does the record list as TGI for `N#Cc1nc(Nc2ccc([N+](=O)[O-])cc2)sc1N` ?
> 100 µM

What does the record list as TGI for `S=C1CSc2c(cnc3ccccc23)N1` ?
> 100 µM

What does the record list as TGI for `CC(C)[C@@H](CS(=O)(=O)C(C)C)N1C(=O)[C@@](C)(CC(=O)O)C[C@H](c2cccc(Cl)c2)[C@H]1c1ccc(Cl)cc1` ?
> 90.1 µM

What does the record list as TGI for COc1cc(-c2coc3c(OC)c(OC4OC(COC5OC(C)C(O)C(O)C5O)C(O)C(O)C4O)c(OC)c(O)c3c2=O)cc(C)c1O (configuration not stated) ?
43.5 µM

What does the record list as TGI for `CCOC(=O)/C=C1/Nc2cc(F)c(F)cc2NC1=O` ?
> 100 µM

What does the record list as TGI for `Nc1ccc(-c2nc3cc(F)ccc3s2)cc1` ?
> 100 µM

What does the record list as TGI for `Cc1nc2ccc(NCCN(C)C)c3c(=O)c4cc(O)ccc4n1c23` ?
2.4 µM

What does the record list as TGI for CC(C)CC(NC(=O)C(N)CCC(=O)OCc1ccccc1)C(=O)NC(COCc1ccccc1)C(=O)NC(Cc1ccccc1)C(=O)ON1C(=O)CCC1=O (configuration not stated) (H-E(OBn)LS(Bn)F-OSu; configuration not given here) ?
> 100 µM

What does the record list as TGI for `C/C(NC(=O)c1ccccc1)=C(/C(=O)c1ccccc1)[C@@H]1OC(C)(C)O[C@@H]1[C@H]1COC(C)(C)O1` ?
86.3 µM

---

system: M14 melanoma; experiment: NCI tumour cell line growth inhibition, 48 h
Outcome measure: GI50

Recorded GI50, per entry:
CN1c2ccccc2C(C)(C)C12CC(c1ccc(Cl)c(S(=O)(=O)N3CCCC3)c1)=NO2 (stereo not given) :: > 100000 nM
C=C1C(=O)O[C@H]2[C@H]1CC/C(COC(=O)C(=O)c1cn(C)c3ccc(OC)cc13)=C\CC[C@@]1(C)O[C@@H]21 :: 3220 nM
COc1ccc(-c2nn(-c3cccc(NC(=O)Nc4cccc(C(F)(F)F)c4)c3)cc2-c2ccncc2)cc1Cl :: 1630 nM
COc1ccc(-c2[nH]ncc2-c2cc(OC)c(OC)c(OC)c2)cc1 :: < 10 nM

What does the record list as GI50 for `COc1cc(/C=C/C(=O)c2cc(OC)c(OC)c(OC)c2)cc(OC)c1OC` ?
2820 nM
